observed-property: melting point

In the examples that follow, each entry is paired with its recorded melting point.
FC(F)(F)Oc1cccc(-c2nc(-c3ccccn3)no2)c1 :: 86 to 88 °C
CC(=O)Nc1scc(C)c1C(=O)c1ccccc1 :: 106 to 107 °C
CCCCCCCCNC(=O)N=C(NC(=O)NCC)OC :: 88 to 90 °C
CC(C)(CO)Oc1ccc2c(c1)CCc1c-2ccc2c1CCC2(C)C :: 122 to 125 °C
CC(C)(C)c1ccc(-c2ccc(N3CCCN(c4ccc(-c5ccc(C(C)(C)C)cc5)cn4)CC3)nc2)cc1 :: 268 to 270 °C

Attention now turns to another entry.
For this compound ( CCSC1=CCC2C3CCC4=CC(=O)C=CC4(C)C3(F)C(OC(C)=O)CC12C (stereo unspecified) ), measured melting point is 211 to 215 °C
